The values you see were collected from paper PMC8708492.

- Tested on: HESC cells
- TEST_SUMMARY: Binding of peptide-displaying T7 phages to cultured cells (plaque assay)
- Set-up: species or system human
- DETAILS: peptide displayed on T7 phage, HESC cells in suspension, 4 °C, 1 h, washed, N = 3
PARAMETER: phage binding, fold over insertless phage

| SUBSTANCE | ASSAY_RESULT |
| --- | --- |
| RPARPAR | ~ 2 fold |
| RTRLHTR [EM2, receptor unknown] | ~ 2 fold |
| PPRRGLIKLKTS [PL1] | 13–16 fold |
| AGRGRLVR (displayed on T7 phage) [PL3] | 4–6 fold |
| C * RGDKGPDC * (disulfide) [iRGD, disulfide-cyclised peptide targeting angiogenic αv integrins and NRP-1] | 9 fold |
